Sourced from patent US20210206877A1

# TARGET: BACE1 ECD (as used in the enzyme activity assay) (UniProt P56817 22-457, limits assumed)
# Sequence (P56817 22-457 limits assumed): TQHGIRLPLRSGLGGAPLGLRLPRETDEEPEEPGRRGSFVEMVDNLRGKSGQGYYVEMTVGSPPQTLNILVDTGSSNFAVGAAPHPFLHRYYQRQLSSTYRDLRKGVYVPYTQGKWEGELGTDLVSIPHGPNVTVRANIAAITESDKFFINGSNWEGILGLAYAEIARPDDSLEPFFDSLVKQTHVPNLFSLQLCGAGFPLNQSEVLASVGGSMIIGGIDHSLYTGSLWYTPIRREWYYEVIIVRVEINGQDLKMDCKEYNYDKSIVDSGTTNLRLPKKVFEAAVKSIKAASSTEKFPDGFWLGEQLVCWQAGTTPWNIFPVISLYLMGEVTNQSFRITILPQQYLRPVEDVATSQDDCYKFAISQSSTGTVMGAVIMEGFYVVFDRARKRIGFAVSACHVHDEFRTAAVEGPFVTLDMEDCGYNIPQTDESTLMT
# PROTOCOL DETAILS: cell-based or functional assay
EXPERIMENTAL ENDPOINT: EC50, HTRF long substrate assay (nM)
Write the value in nM as a bare number.

{"columns": ["BINDER", "U", "MEASURED"],
 "data": [
  ["5905 (antibody, V domains shown) VH: QLQLQESGPGLVKPSETLSLTCTVSGGSISWSSYYWSWIRQPPGKGLEWIGSIYRSGRTYYNPSLKSRVTISVDTSKNQFSLKLSSVTAADTAVYYCARVGHGISYFDLWGRGTLVTVSS VL: EIVLTQSPATLSLSPGERATLSCRASQSVSSYLAWYQQKPGQAPRLLIYDASKRATGIPARFSGSGSGTDFTLTISSLEPEDFAVYYCQQVYTWPPRTFGGGTKVEIK", "nM", 3.91]
]}

Exercise: For the binder 5897 (antibody, V domains shown) VH: QLQLQESGPGLVKPSETLSLTCTVSGGSISWSSYYWSWIRQPPGKGLEWIGSIYKSGRTYYNPSLKSRVTISVDTSKNQFSLKLSSVTAADTAVYYCARVGHGISYFDLWGRGTLVTVSS VL: EIVLTQSPATLSLSPGERATLSCRASQSVSSYLAWYQQKPGQAPRLLIYDASNRATGIPARFSGSGSGTDFTLTISSLEPEDFAVYYCQQSLTWPPRTFGGGTKVEIK , what EC50, HTRF long substrate assay is on record?
Solution: 1.39

Exercise: Param item = 5893 (antibody, V domains shown) VH: QVQLVQSGAEVKKPGSSVKVSCKASGGTFRGYAISWVRQAPGQGLEWMGNIIPGFGTANYAQKFQGRVTITADESTSTAYMELSSLRSEDTAVYYCARSGGTKYGMLDVWGQGTMVTVSS VL: EIVMTQSPATLSVSPGERATLSCRASQSVGSNLAWYQQKPGQAPRLLIYGASTRATGIPARFSGSGSGTEFTLTISSLQSEDFAVYYCQQLYTWPPRTFGGGTKVEIK ; retrieve measured EC50, HTRF long substrate assay.
Solution: 3.59
